Each item that follows carries a reported Affinity cyno/hu gap (KD cynomolgus BCMA / KD human BCMA).
- Assayed Target: recombinant cynomolgus BCMA Fc(kih) (cynomolgus, UniProt A0A2K5UD97 4-51, biotinylated in vivo at the avi-tag at the C-terminus of the Fc knob chain)
- Sequence (A0A2K5UD97 entry or part of it): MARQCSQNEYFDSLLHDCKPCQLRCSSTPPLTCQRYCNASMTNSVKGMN
- Method Description: ratio of the SPR KDs of Table 4, human BCMA as reference
Output spec: scalar in fold, unitless text.

# count of solved cases: 2
Briefly, Affinity cyno/hu gap (KD cynomolgus BCMA / KD human BCMA) measured for Mab 42 IgG (antibody, V domains shown, Tested as human IgG1; also called antibody 42; clone 42) VH: EVQLLESGGGLVQPGGSLRLSCAASGFTFSDNAMGWVRQAPGKGLEWVSAISGPGSSTYYADSVKGRFTISRDNSKNTLYLQMNSLRAEDTAVYYCAKVLGWFDYWGQGTLVTVSS VL: EIVLTQSPGTLSLSPGERATLSCRASQSVSDEYLSWYQQKPGQAPRLLIHSASTRATGIPDRFSGSGSGTDFTLAISRLEPEDFAVYYCQQYGYPPDFTFGQGTKVEIK : 1.7

Briefly, Affinity cyno/hu gap (KD cynomolgus BCMA / KD human BCMA) measured for Mab 22 IgG (antibody, V domains shown, Tested as human IgG1; also called antibody 22; clone 22) VH: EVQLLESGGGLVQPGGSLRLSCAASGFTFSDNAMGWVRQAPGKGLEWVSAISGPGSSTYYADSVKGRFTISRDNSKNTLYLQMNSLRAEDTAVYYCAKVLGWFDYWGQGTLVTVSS VL: EIVLTQSPGTLSLSPGERATLSCRASQSVSSYYLAWYQQKPGQAPRLLISGAGSRATGIPDRFSGSGSGTDFTLTISRLEPEDFAVYYCQQYGYPPDFTFGQGTKVEIK : 15.4

New cases:
Briefly, Affinity cyno/hu gap (KD cynomolgus BCMA / KD human BCMA) measured for Mab 33 IgG (antibody, V domains shown, Tested as human IgG1) VH: EVQLLESGGGLVQPGGSLRLSCAASGFTFYTNAMGWVRQAPGKGLEWVSAINRFGGSTYYADSVKGRFTISRDNSKNTLYLQMNSLRAEDTAVYYCAKVLGWFDYWGQGTLVTVSS VL: EIVLTQSPGTLSLSPGERATLSCRASQSVSEYYLAWYQQKPGQAPRLLIEHASTRATGIPDRFSGSGSGTDFTLTISRLEPEDFAVYYCQQYGYPPDFTFGQGTKVEIK : 4.2

Hello, the source for this data is patent US20230322957A1, in case you need it.
